Assay: M. tuberculosis H37Rv growth inhibitors, H37Rv strain (AID 1626);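 further: bacteria incubated seven days before Alamar blue readout; 0% = bacteria only wells and 100% = bacteria with antibiotic wells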
Conditions: hits give high values, concentration not given here
Screen size: about 220,000 compounds; about 2,000 (0.91%) were called active. Roughly 2% stayed inconclusive and do not appear here. Not all results are given here. Results with a measured potency or affinity are listed apart.
The following molecules are listed with their measured inhibition values.
Record the value in %, omitting the unit from your answer.

Some molecules with known inhibition results, for comparison:
> print(dat)
                                   molecule  unit.annotation  test.value
1  Cc1ccc(NC(=O)C2CCCCC2C(=O)O)cc1C (stereo not drawn)                %        1.55
2  COc1ccc(OC)c(N/C(C)=C/C(=O)c2ccc(C)o2)c1                %       -3.01
3             NC1=NCC(O)=C1c1nc2ccccc2[nH]1                %        4.96
4  CCCn1c(CN2CCN(c3cccc(Cl)c3)CC2)nc2c1c(=O)n(C)c(=O)n2C                %        7.42

Lab book: inhibition of `COc1ccc(-c2csc(/C(C#N)=C/Nc3ccc4c(c3)OCCO4)n2)cc1` noted as 5.83

The molecule listed as `Cc1oc(CC(C)C)cc1C(=O)Nc1cccc2ccccc12` has a reported inhibition of -8.7

The measured inhibition associated with O=C(O)C1CCCCC1C(=O)Nc1ccc(F)c(F)c1 (stereo not drawn) reads 0.5

Lab book: inhibition of `COc1ccc(N/C=C\C(=O)c2ccc3c(c2)OCO3)cc1` noted as 77.1

Entry CCOc1ccc(-c2ccc(SCC(=O)NCC3CCCO3)nn2)cc1 (stereo not drawn) — recorded inhibition = 3.18

The molecule identified as `Cn1c(N)c(C(=O)COC(=O)C2CCCC2)c(=O)n(C)c1=O` registered its inhibition at -2.87

Documented inhibition of `COc1cc(C(=O)Nc2cc(C)cc(C)c2)c(-n2cnnn2)cc1OC` : 5.79

Value of measured inhibition for the entry `CCOc1ccc(Br)cc1S(=O)(=O)Nc1ccc(C(=O)Nc2ccc(C)cc2)cc1` : 1.51

Form: molecule = `COc1ccccc1N1CCN(C(=O)c2ccc(CN3CCOCC3)cc2)CC1` ; inhibition = 4.65

Notebook: `COc1cc2c(cc1N/C=C(\C#N)c1nc(-c3ccc(F)cc3)cs1)oc1ccccc12` , inhibition read as 5.47

response.value for `CNC(=O)c1[nH]cnc1C(=O)N[C@@H](C)C(=O)OCc1ccccc1` (field: inhibition) = -1.09

The molecule `COC(=O)CNC(=O)COC(=O)/C=C/c1ccccc1[N+](=O)[O-]` showed inhibition equal to 3.19
